biological target: Tyrosyl-tRNA synthetase, putative (Trypanosoma cruzi (strain CL Brener)) (UniProt Q4DSP6); assay: Trypanosoma cruzi tyrosyl tRNA synthetase (TcYRS) SOP; assay type: functional; parameters: scale not given: direction of the effect not stated beside the values; conditions: 30 µM
Sequence (Q4DSP6 as listed by the source): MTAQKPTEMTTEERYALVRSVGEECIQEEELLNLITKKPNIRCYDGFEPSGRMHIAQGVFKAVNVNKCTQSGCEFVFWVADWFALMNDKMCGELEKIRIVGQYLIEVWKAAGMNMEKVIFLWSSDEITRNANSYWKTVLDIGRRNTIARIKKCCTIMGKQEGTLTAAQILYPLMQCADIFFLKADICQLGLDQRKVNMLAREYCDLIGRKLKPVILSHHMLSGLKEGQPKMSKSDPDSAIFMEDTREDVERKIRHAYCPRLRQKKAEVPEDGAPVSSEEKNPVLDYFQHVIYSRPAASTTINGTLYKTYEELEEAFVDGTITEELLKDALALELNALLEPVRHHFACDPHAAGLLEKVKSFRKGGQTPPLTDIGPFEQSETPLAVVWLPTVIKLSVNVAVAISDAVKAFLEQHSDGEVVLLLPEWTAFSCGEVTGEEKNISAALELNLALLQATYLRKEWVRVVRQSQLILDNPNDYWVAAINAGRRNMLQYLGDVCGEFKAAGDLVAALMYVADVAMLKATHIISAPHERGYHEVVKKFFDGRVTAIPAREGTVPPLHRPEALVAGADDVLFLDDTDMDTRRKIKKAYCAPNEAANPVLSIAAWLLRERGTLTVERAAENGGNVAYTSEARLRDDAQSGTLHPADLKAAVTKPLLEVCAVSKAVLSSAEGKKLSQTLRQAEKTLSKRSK
The label is class 1 for Percent Effect below 10% and class 0 for Percent Effect equal to or exceeding 10%.

## Input Does the reported Percent Effect of the following compound sit strictly below 10%? Cc1nc(-c2ccsc2)ccc1C(=O)O
## Output class 0

## Input Does the reported Percent Effect of the following compound sit strictly below 10%? COCCOc1cccc(C(=O)N2CCCC(n3cccn3)C2)c1 (stereo not drawn)
## Output class 1

## Input Does the reported Percent Effect of the following compound sit strictly below 10%? Cc1ccc2oc(C(=O)N3CCc4nnc(N(C)C)cc4C3)cc2n1
## Output class 1

## Input Does the reported Percent Effect of the following compound sit strictly below 10%? COc1ccc(C)cc1C(C)NC(=O)NCCCn1cncn1 (stereo not drawn)
## Output class 0

## Input Does the reported Percent Effect of the following compound sit strictly below 10%? COc1ccc(F)cc1C(C)NC(=O)c1nnc(C)s1 (stereo not drawn)
## Output class 1

## Input Does the reported Percent Effect of the following compound sit strictly below 10%? O=S(=O)(CCNCc1ccc2c(c1)CCO2)N1CCOCC1
## Output class 1

## Input Does the reported Percent Effect of the following compound sit strictly below 10%? Cc1cccc2c1cnn2CCCNC(=O)C(C)C
## Output class 0

## Input Does the reported Percent Effect of the following compound sit strictly below 10%? Cn1nc(C(=O)N2CCCCC2c2nc3cc(F)ccc3[nH]2)ccc1=O (stereo not drawn)
## Output class 0

## Input Does the reported Percent Effect of the following compound sit strictly below 10%? CN(C)CCOCC1CN(Cc2ccsc2)Cc2ccnn2C1 (stereo not drawn)
## Output class 1

## Input Does the reported Percent Effect of the following compound sit strictly below 10%? CN(Cc1ccc(Cl)s1)C1CCCN(c2cccnn2)C1 (stereo not drawn)
## Output class 0

## Input Does the reported Percent Effect of the following compound sit strictly below 10%? Cc1cc(C(=O)NCCN2CCCC(C)C2)nn1C (stereo not drawn)
## Output class 1

## Input Does the reported Percent Effect of the following compound sit strictly below 10%? CN(CCO)C(=O)c1coc(CN2CCN(c3ccccc3F)CC2)n1
## Output class 0

## Input Does the reported Percent Effect of the following compound sit strictly below 10%? CC(C)c1n[nH]c(C(=O)Nc2ccnn2C(C)C)c1Br
## Output class 0

---

biological target: Tyrosyl-tRNA synthetase, putative (Trypanosoma cruzi (strain CL Brener)) (UniProt Q4DSP6); experiment: Trypanosoma cruzi tyrosyl tRNA synthetase (TcYRS) SOP; type: functional; parameters: scale not given: direction of the effect not stated beside the values; conditions: 30 µM
Would you mind telling me the reported Percent Effect of each entry?
State just the number; it will be interpreted in %.

Form: item Cc1nn(C)c(N(C)C)c1CNCC(O)COc1ccccc1 (stereo not drawn) ; test system Tyrosyl-tRNA synthetase, putative (Trypanosoma cruzi (strain CL Brener)) (UniProt Q4DSP6); Percent Effect: 17.5

Form: item CCS(=O)(=O)N1CCC[C@]2(C(=O)N(C)C)CN(c3ncccn3)C[C@@H]2C1 ; test system Tyrosyl-tRNA synthetase, putative (Trypanosoma cruzi (strain CL Brener)) (UniProt Q4DSP6); Percent Effect: 22.5

Form: item CCCS(=O)(=O)NC(C)C(=O)NCc1ccc(N2CCCC2)nc1 (stereo not drawn) ; test system Tyrosyl-tRNA synthetase, putative (Trypanosoma cruzi (strain CL Brener)) (UniProt Q4DSP6); Percent Effect: 13.6

Form: item CN1CC[C@H](c2ccccc2)[C@@H]2[C@H]1CCCCN2C(=O)c1cnccn1 ; test system Tyrosyl-tRNA synthetase, putative (Trypanosoma cruzi (strain CL Brener)) (UniProt Q4DSP6); Percent Effect: 3.9

Form: item Cn1cc(CN2CCC3(CCCN3S(C)(=O)=O)CC2)cn1 ; test system Tyrosyl-tRNA synthetase, putative (Trypanosoma cruzi (strain CL Brener)) (UniProt Q4DSP6); Percent Effect: -25.6

Form: item COc1nc(C)cc(C)c1CNC(=O)N(C)Cc1cnn(C)c1 ; test system Tyrosyl-tRNA synthetase, putative (Trypanosoma cruzi (strain CL Brener)) (UniProt Q4DSP6); Percent Effect: 15.8

Form: item CCc1n[nH]c(C2CN(C(=O)c3ccsc3)CCO2)n1 (stereo not drawn) ; test system Tyrosyl-tRNA synthetase, putative (Trypanosoma cruzi (strain CL Brener)) (UniProt Q4DSP6); Percent Effect: -2.35

Form: item CC(C)c1ncc2c(n1)CN(Cc1nc(-c3ccoc3)no1)CC2 ; test system Tyrosyl-tRNA synthetase, putative (Trypanosoma cruzi (strain CL Brener)) (UniProt Q4DSP6); Percent Effect: 3.66

---

target: Tyrosyl-tRNA synthetase, putative (Trypanosoma cruzi (strain CL Brener)); experiment: Trypanosoma cruzi tyrosyl tRNA synthetase (TcYRS) _High Tyrosine SOP; assay type: functional; parameters: scale not given: in the data most compounds retested in dose-response had high values; conditions: 30 µM
Would you mind telling me the reported Percent Effect of each entry?
State just the number; it will be interpreted in %.

Lab note: Cc1cc(CNc2cc(Cl)ccc2Cl)no1 gave Percent Effect of -11

Lab note: Cn1ccc(C(=O)N2CCN(CCc3ccccc3)CC2)cc1=O gave Percent Effect of 12.5

Lab note: Cn1ccc(NC(=O)Cc2cccc(F)c2)n1 gave Percent Effect of 12.9

Lab note: CCCOc1cccc(CNC(=O)CN2CCN(C)CC2C)c1 (centres undefined) gave Percent Effect of 3.96

Lab note: CCCS(=O)(=O)N1CCC2(CC1)CN(c1ccccn1)CCO2 gave Percent Effect of 0

Lab note: Cn1ccc2ccnc(CC3CN(C(=O)C4CCC(F)(F)CC4)C3)c21 gave Percent Effect of 6.45

Lab note: Cc1c(F)cccc1CN1CCn2nc(CNC(=O)N(C)C)cc2C1 gave Percent Effect of 5.85

Lab note: CCN(CC(=O)NC)C(=O)Cc1nc(-c2ccco2)oc1C gave Percent Effect of 8.2

Lab note: Cc1cc(CN(C)C(=O)NCC(C)N2CCc3ccccc32)no1 (centres undefined) gave Percent Effect of 7.84

Lab note: CCn1cc(NC(=O)CCc2ccc3c(c2)OCCCO3)cn1 gave Percent Effect of 6.86

Lab note: CNc1cc(C2CCCN2Cc2ccccc2OCC(=O)O)ccn1 (centres undefined) gave Percent Effect of 5.38

Lab note: CCOC(=O)CN1CCC(C(=O)c2cc(F)ccc2F)CC1 gave Percent Effect of 5.39

Lab note: c1ccc(OCCCN2CCN(c3ccc4nncn4n3)CC2)cc1 gave Percent Effect of 18.4

Lab note: Cc1ncc2c(n1)CN(Cc1nc3ccccc3o1)CC2 gave Percent Effect of 25.8

Lab note: Cc1ccc(CCC(=O)N2CCCC(n3cncn3)C2)c(C)c1 (centres undefined) gave Percent Effect of 5.79

Lab note: Cc1ccc(N(CC(=O)c2ccc(Br)cc2)C2=NCCCCC2)cc1 gave Percent Effect of 4.25

Lab note: Cc1cc(C)n(CC2CCCN2C(=O)c2ccc3[nH]nnc3c2)n1 (centres undefined) gave Percent Effect of 1.07

Lab note: COCCN1CCN(C(=O)C2CC=CC2)Cc2cccnc21 gave Percent Effect of 3.12

Lab note: CC(C)c1cccc(CSc2nnc(CN3CCCC3=O)o2)n1 gave Percent Effect of 1.64

Lab note: Cc1noc(C(C)C)c1C(=O)NCC(c1ccsc1)N(C)C (centres undefined) gave Percent Effect of 1.48

Lab note: Cc1noc(C)c1CN1CCN(C(=O)Cn2cncn2)CC1 gave Percent Effect of 2.15

Lab note: COc1ccc(CCC(=O)N2CCCC2Cn2cc(C)cn2)cc1F (centres undefined) gave Percent Effect of 1.91

Lab note: O=C(NCC(O)CN1CCc2ccccc2C1)Nc1cccnc1 (centres undefined) gave Percent Effect of 1.91

Lab note: Cc1nc(CN2CCCC(NCc3ccsc3)C2)no1 (centres undefined) gave Percent Effect of 4.85

---

Would you mind telling me the reported Percent Effect of each entry?
biological target: Chromo domain-containing protein 1 (Saccharomyces cerevisiae (strain ATCC 204508 / S288c) (Baker's yeast)) (UniProt P32657); assay: ScCHD-1 Enzyme Inhibition Assay; type: functional; design: scale not given: in the data most compounds retested in dose-response had high values; details: 30 µM
Sequence (P32657 whole entry, the tested form may be a part): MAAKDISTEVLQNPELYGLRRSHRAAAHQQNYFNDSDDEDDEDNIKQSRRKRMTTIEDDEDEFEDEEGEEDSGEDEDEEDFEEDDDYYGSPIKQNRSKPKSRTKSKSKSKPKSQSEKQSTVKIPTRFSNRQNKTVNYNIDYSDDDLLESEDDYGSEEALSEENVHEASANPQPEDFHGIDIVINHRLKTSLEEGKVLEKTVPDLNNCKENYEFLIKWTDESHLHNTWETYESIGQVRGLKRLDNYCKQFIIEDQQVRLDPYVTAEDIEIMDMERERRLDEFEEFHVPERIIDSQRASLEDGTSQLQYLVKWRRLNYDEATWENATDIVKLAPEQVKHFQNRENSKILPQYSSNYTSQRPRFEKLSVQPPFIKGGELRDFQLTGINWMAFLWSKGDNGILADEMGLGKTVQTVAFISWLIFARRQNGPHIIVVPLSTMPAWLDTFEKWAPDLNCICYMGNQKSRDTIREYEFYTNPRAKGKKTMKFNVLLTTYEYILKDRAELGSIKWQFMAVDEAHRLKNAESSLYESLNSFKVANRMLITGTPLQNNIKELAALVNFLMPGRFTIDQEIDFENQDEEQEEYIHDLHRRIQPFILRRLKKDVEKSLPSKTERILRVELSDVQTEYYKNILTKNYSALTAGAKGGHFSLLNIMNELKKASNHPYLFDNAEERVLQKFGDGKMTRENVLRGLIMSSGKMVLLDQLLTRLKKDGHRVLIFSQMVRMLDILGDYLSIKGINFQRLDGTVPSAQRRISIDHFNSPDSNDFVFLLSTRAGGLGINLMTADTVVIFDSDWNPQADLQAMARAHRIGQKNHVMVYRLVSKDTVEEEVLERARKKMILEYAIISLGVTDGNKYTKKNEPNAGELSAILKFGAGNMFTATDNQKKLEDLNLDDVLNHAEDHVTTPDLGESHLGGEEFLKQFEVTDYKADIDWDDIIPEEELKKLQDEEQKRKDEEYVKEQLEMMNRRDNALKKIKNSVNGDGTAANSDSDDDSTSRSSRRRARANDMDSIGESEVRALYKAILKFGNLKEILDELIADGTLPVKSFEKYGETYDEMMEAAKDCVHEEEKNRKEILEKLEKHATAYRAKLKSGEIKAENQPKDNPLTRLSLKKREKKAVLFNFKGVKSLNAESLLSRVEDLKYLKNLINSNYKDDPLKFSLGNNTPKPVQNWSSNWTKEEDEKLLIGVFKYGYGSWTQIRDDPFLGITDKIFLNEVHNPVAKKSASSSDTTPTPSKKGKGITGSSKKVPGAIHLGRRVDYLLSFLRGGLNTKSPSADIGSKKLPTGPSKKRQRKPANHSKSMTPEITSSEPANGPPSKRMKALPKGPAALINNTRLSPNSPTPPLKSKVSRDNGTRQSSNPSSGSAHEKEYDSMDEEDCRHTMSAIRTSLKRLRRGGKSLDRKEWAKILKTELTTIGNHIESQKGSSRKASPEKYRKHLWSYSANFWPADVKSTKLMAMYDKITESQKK
State just the number; it will be interpreted in %.

Lab note: COc1ccccc1C(O)CNC(=O)NCc1cccnc1OC (stereo unspecified) gave Percent Effect of -5.07

Lab note: Cc1cccc2cc(CNCCCN3CCOCC3)c(=O)[nH]c12 gave Percent Effect of -27.6

Lab note: CN(C)C(=O)N1Cc2nnn(C)c2C(COCC2CC2)C1 (stereo unspecified) gave Percent Effect of -1.7

Lab note: COc1cc(C(=O)N2CCCS2(=O)=O)ccc1C gave Percent Effect of -8.07

Lab note: CCc1nc(CN2CCCN(C(=O)CCSC)CC2)cs1 gave Percent Effect of -4.21

Lab note: CCOc1ccccc1-c1noc(CN(C)Cc2cnn(C)c2)n1 gave Percent Effect of -1.75

Lab note: Cc1cc(CN2Cc3ccccc3CC2c2nnc(C)o2)on1 (stereo unspecified) gave Percent Effect of -13.4

Lab note: NC(=O)CSCC(=O)N1CCc2cc(Cl)cc(Cl)c2C1 gave Percent Effect of -8.22

Lab note: CCN(CC)CCNC(=O)c1ccn(COc2cc(C)cc(C)c2)n1 gave Percent Effect of -9.92

Lab note: CC(=O)N1CC(=O)N(c2cnn(C)c2)CC12CCN(CC1CC1)C2 (stereo unspecified) gave Percent Effect of -0.193

Lab note: CCC(=O)N1CCN(C(=O)CCn2cccn2)CC1 gave Percent Effect of -6.76
